Each entry below lists one item and its recorded CC50 at 72 h value.
assay: HeLa cytotoxicity assay (ATPlite); details: human, HeLa cells

# annotated cases, reported CC50 at 72 h shown
CN1C(=O)C2(CCN(c3cnc(N4CCOCC4)c(Cl)c3)CC2)c2cc(F)ccc21 [Compound 34]: > 50 µM
Cc1ccc2c(c1)C1(CCN(c3cnc(C#N)c(Cl)c3)CC1)C(=O)N2 [Compound 17]: > 50 µM
N#Cc1ncc(N2CCC3(CC2)C(=O)N(c2cccnc2)c2ccc(F)cc23)cc1Cl [Compound 21]: > 2.71 µM
N#Cc1ncc(N2CCC3(CC2)C(=O)Nc2ccc(Br)cc23)cc1Cl [Compound 1]: > 3.8 µM
CN1C(=O)C2(CCN(c3ccc(C#N)c(Cl)n3)CC2)c2cc(F)ccc21 [Compound 29]: > 8.43 µM
CN1C(=O)C2(CCN(c3cnc(C#N)c(Cl)c3)CC2)c2cc(Br)ccc21 [Compound 22]: > 50 µM
COc1cc(N2CCC3(CC2)C(=O)N(C)c2ccc(F)cc23)cnc1C#N [Compound 31]: > 22.7 µM
N#Cc1ncc(N2CCC3(CC2)C(=O)N(CCF)c2ccc(F)cc23)cc1Cl [Compound 25]: > 23.4 µM
N#Cc1ncc(N2CCC3(CC2)C(=O)Nc2ccc(F)cc23)cc1Cl [Compound 19]: > 50 µM
N#Cc1ncc(N2CCC3(CC2)C(=O)Nc2ccccc23)cc1Cl [Compound 20]: > 3.8 µM

What CC50 at 72 h value was documented for this molecule, N#Cc1ncc(N2CCC3(CC2)C(=O)Nc2ccc(Cl)cc23)cc1Cl [Compound 16] ? > 13 µM

Same question, N#Cc1ncc(N2CCC3(CC2)C(=O)N(CC2CC2)c2ccc(F)cc23)cc1Cl [Compound 24] this time > 7.77 µM

Same question, COc1ccc2c(c1)C1(CCN(c3cnc(C#N)c(Cl)c3)CC1)C(=O)N2 [Compound 18] this time 24.4 µM

Same question, CN1C(=O)C2(CCN(c3cnc(C#N)c(Cl)c3)CC2)c2cc(F)ccc21 [Compound 23] this time > 3.74 µM

Same question, Cc1cc(N2CCC3(CC2)C(=O)N(C)c2ccc(F)cc23)cc(F)c1C#N [Compound 32] this time > 5.78 µM

Recorded values, source paper PMC12282092.
